test: refractive index (Na D-line) (dimensionless); settings: 293.15 K; 101.33 kPa; Liquid; Standard Abbe refractometry
MEASURED_ENDPOINT: refractive index
Give a plain numeric answer without units written out.

Reported refractive index ( `CO` ) = 1.3286

# refractive index of `C1=CCCC1` = 1.4224

Recorded result, `CCCCCC` , refractive index: 1.3748

Given item `CCCCC` , the value recorded as its refractive index is 1.3578

Looking up `C=CC(=C)C` , I found its refractive index recorded as 1.4218

// recorded refractive index for `CCO` : 1.3613

Value of measured refractive index for the entry `CC(C)=O` : 1.3586

GET /value?item= `CCC(C)C` &field=refractive index returns 1.3535

So for `C1CCCC1` , the logged refractive index turned out to be 1.4064

Entry under test: `CC=C(C)C` . Its refractive index was 1.3876
